Cited source: patent US20260152567A1

Target: T1, cynomolgus monkey CD73 protein (cynomolgus monkey, UniProt A0A2K5V5U7 27-547)
T1 construct: construct not described
T1 sequence: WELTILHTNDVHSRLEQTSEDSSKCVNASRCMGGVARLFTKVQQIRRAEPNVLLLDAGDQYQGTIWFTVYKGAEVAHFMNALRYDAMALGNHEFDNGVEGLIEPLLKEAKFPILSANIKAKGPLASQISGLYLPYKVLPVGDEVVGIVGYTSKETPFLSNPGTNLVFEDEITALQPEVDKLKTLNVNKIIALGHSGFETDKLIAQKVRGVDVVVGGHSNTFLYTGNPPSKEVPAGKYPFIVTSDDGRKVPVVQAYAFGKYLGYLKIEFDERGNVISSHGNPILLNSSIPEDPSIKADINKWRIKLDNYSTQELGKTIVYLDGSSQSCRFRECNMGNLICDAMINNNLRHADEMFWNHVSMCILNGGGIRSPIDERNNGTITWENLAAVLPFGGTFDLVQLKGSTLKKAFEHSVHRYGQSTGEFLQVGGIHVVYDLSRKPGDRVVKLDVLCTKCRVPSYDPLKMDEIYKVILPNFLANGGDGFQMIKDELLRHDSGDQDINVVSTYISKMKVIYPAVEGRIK
Assay: BLI (Fortebio), cynomolgus CD73 on HIS1K biosensors, antibody as analyte

| BINDER | OUTPUT UNIT | koff |
| --- | --- | --- |
| Hab1F2F9.15 (antibody, human IgG1, kappa, L234A L235A, V domains shown, Humanized 1F2F9; also called Huab1F2F9.15; HuablF2F9.15) VH: QVQLVQSGAEVKKPGASVKVSCKASGYTFTSYWMHWVRQAPGQRLEWMGNINPSNGGTKYSQKFQGRVTITVDTSASTAYMELSSLRSEDTAVYYCARRDYGSPSYWGQGTTVTVSS VL: DIQMTQSPSSLSASVGDRVTITCKASQDINSYLTWFQQKPGKAPKSLIYRTNILLDGVPSRFSGSGSGTDYTLTISSLQPEDFATYYCLQYHEFPVTFGGGTKLEIKR | s⁻¹ | 0.0017 |
